Experimental Target: Protein kinase C iota type (Homo sapiens) (UniProt P41743)
Sequence (P41743 whole entry): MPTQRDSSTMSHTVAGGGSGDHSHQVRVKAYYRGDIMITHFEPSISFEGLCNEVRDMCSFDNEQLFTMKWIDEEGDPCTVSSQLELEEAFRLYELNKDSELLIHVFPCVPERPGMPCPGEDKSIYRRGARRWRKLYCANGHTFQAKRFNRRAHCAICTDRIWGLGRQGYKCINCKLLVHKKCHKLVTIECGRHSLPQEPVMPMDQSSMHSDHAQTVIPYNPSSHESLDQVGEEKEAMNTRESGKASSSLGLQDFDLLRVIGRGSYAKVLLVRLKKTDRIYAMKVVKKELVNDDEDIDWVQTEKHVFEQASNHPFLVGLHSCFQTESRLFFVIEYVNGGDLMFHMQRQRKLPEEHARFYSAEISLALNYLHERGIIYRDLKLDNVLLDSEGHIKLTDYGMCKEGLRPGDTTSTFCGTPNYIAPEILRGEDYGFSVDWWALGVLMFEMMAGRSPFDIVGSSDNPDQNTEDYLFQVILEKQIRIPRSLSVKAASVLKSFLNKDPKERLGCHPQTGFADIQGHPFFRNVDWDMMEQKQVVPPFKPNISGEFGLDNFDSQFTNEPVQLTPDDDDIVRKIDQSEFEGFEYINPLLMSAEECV
Recorded Conditions: at 0.1 µM
Description: GSK_PKIS: PKC-iota mean inhibition at 0.1 uM [Nanosyn]
Form field: inhibition (one value per entry).
The reply should be a number in %, with the unit left off.

Sample records with inhibition:
Field inhibition (Protein kinase C iota type (Homo sapiens) (UniProt P41743)), entry NS(=O)(=O)c1ccc(N/N=C2\C(=O)Nc3ccc(C(=O)NCc4ccncc4)cc32)cc1 : -9.87

Field inhibition (Protein kinase C iota type (Homo sapiens) (UniProt P41743)), entry Cc1nnc(-c2cccc(-c3ccc(C(=O)NCC4CC4)cc3)c2)o1 : 2.19

Field inhibition (Protein kinase C iota type (Homo sapiens) (UniProt P41743)), entry O=C1Nc2ccccc2/C1=C1\CCc2cc(O)ccc21 : 2.01

Consider the record given below.
Field inhibition (Protein kinase C iota type (Homo sapiens) (UniProt P41743)), entry CN(c1ccc(NC(=O)NCCN2CCOCC2)cc1)c1ccnc(Nc2ccc(CS(C)(=O)=O)cc2)n1 : 2.77

====

Experimental Target: Protein-tyrosine kinase 6 (Homo sapiens) (UniProt Q13882)
Sequence (Q13882 whole entry, looked up): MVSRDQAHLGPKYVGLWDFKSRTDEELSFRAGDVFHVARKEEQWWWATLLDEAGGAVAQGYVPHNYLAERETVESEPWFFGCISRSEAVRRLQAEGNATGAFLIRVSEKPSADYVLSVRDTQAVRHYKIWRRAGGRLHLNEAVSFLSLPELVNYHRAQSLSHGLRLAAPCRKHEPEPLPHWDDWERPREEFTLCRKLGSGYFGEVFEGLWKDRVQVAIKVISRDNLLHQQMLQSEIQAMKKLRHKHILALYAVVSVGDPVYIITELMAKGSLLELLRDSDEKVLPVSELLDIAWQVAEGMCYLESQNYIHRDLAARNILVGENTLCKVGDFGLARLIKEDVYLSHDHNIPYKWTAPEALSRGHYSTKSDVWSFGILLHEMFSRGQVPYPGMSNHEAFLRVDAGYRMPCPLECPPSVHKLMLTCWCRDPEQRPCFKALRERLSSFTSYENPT
Recorded Conditions: at 0.1 µM
Description: GSK_PKIS: BRK mean inhibition at 0.1 uM [Nanosyn]
Measured Parameter: inhibition (%)
The reply should be a number in %, with the unit left off.

Sample records with inhibition:
// inhibition value for CS(=O)(=O)CCNCc1ccoc1-c1ccc2ncnc(Nc3ccc(OCc4ccccc4)cc3)c2c1 : 1.71

// inhibition value for O=C(Nc1n[nH]c2nnc(-c3cccnc3)cc12)C1CC1 : -0.91

// inhibition value for COc1cc2c(cc1Nc1nc(Nc3cccc(F)c3C(N)=O)c3cc[nH]c3n1)N(C(=O)CN1CCN(C(C)C)CC1)CC2 : -1.33

// inhibition value for CS(=O)(=O)CCNCc1ccc(-c2ccc3ncnc(Nc4ccc(OCc5ccccc5)cc4)c3c2)o1 : 2.05

// inhibition value for c1ccc(-c2n[nH]cc2-c2ccnc(-c3ccc(OCCn4ccnc4)cc3)c2)nc1 : 2.69

Consider the record given below.
// inhibition value for Cc1ccc(-c2cc3c(NC(=O)C4CC4)ncnc3o2)cc1 : 4

====

Experimental Target: Tyrosine-protein kinase CSK (Homo sapiens) (UniProt P41240);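 note: value given is the averaged percent inhibition of CSK kinase activity, from the GSK PKIS kinase inhibitor set screening panel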
Sequence (P41240 2-450 limits assumed): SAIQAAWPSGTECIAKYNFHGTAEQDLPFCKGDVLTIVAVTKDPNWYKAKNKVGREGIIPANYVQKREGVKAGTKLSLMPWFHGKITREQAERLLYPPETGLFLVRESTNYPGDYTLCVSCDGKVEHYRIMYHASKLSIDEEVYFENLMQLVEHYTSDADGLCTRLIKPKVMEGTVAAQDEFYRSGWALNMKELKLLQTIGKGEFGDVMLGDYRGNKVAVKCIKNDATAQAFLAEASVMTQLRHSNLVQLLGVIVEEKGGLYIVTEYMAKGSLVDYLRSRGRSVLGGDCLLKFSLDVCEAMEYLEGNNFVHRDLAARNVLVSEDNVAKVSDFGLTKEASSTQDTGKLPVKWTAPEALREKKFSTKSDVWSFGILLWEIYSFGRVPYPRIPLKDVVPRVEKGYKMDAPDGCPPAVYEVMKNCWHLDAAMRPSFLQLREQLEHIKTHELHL
Recorded Conditions: at 0.1 µM
Form field: inhibition (one value per entry).
The reply should be a number in %, with the unit left off.

// inhibition value for Cc1cc(O)cc(C)c1/C=C/c1cncc(C(=O)OC(C)(C)C)c1 : 7.62

// inhibition value for COc1ccc2ncn(-c3cc(O[C@H](C)c4ccccc4C(F)(F)F)c(C(N)=O)s3)c2c1 : -1.23

// inhibition value for COC(=O)Nc1nc2cc(Oc3ccc(NC(=O)Nc4ccccc4)cc3)ccc2[nH]1 : 4.95

// inhibition value for CC1=C(C(=O)Nc2ccc3[nH]ncc3c2)C(c2ccc(F)cc2)N=C(c2ccc(C(F)(F)F)nc2)N1 (stereo not given) : 1.42

***
// inhibition value for COc1cccc(-n2ncc3c(N/N=C/c4ccc(C(=O)NCCN(C)C)cc4)ncnc32)c1 : 3.74

====

Experimental Target: Sphingosine kinase 1 (Homo sapiens);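 note: mean percent inhibition of SPHK1 activity, measured within the GSK PKIS screening panel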
Recorded Conditions: at 0.1 µM
Form field: inhibition (one value per entry).

// inhibition value for CCS(=O)(=O)c1ccc(OC)c(Nc2ncc(-c3cccc(C(C)=O)c3)o2)c1 : 13.1%

***
// inhibition value for CNC(=O)c1sc(-n2cnc3cc(OC)c(OC)cc32)cc1OCc1ccccc1C(F)(F)F : -7.75%

// inhibition value for CN(C)CCNC(=O)Nc1ccc(N(C)c2ccnc(Nc3ccc(CS(C)(=O)=O)cc3)n2)cc1 : 0.26%

// inhibition value for c1ccc(-c2n[nH]cc2-c2ccnc(-c3ccc(OCCn4ccnc4)cc3)c2)nc1 : 2.34%

// inhibition value for NS(=O)(=O)c1ccc(N/N=C2\C(=O)Nc3ccc(C(=O)NCc4ccncc4)cc32)cc1 : -0.37%

// inhibition value for CS(=O)(=O)Nc1ccc(-c2cc(-c3ccccc3)cc(C(N)=O)c2N)cc1 : -1.73%
